# target_under_test: T1, recombinant human CD123-Fc (human, UniProt P26951 19-305)
# T1 construct: not shown: Fc part of CD123-Fc
# T1 sequence: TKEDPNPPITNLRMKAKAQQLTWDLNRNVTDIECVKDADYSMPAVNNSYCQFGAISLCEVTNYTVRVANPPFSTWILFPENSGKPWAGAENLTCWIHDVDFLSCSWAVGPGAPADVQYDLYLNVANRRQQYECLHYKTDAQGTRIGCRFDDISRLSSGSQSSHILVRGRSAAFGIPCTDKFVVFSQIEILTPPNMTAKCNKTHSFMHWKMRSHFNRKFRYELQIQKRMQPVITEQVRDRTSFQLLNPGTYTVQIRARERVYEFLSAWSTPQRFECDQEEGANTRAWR
# test_summary: phage ELISA, captured CD123-Fc
Overview of reported ELISA_avg across a group of binders:
experimental_readout: ELISA_avg (ratio A450 target/IgG1-Fc)

# binder, experimental_readout, measurement_unit, result_number
measured = [
    ("SEQ ID NO: 470 (designed binder, D domain, on phage) MGSWHWFKEDLANIKDWLEALGGSEAELAWFEDNIADFEGDLQVYKGKGNPEVEALRKEAAAIRDELQAYRHN", "ELISA_avg", "ratio A450 target/IgG1-Fc", 3.3),
    ("SEQ ID NO: 589 (designed binder, D domain, on phage) MGSWEEFEDRLFAIDSRLWALGGSEAELAEFENIIASFEEVLQEYKGKGNPEVEALSVEAFAIDRELGAYRHN", "ELISA_avg", "ratio A450 target/IgG1-Fc", 3.7),
    ("SEQ ID NO: 563 (designed binder, D domain, on phage) MGSWEEFHWRLGAIDARLEALGGSEAELAWFEDGIADFEAILQDYKGKGNPEVEALDSEAVAIHHELWAYRHN", "ELISA_avg", "ratio A450 target/IgG1-Fc", 3.3),
]
